Reference source for all entries: patent US20100324829A1

system: HLA-DP4 molecule DPA1*0103/DPB1*0402 (DP402) (Homo sapiens, UniProt P04440+P20036, A65V/A84D/A85E/L207M)
Construct: purified from various human B lymphocyte lines transformed with the Epstein Barr virus (EBV), which are homozygotes for DP; endogenous in cells
Sequence (P20036 29-260): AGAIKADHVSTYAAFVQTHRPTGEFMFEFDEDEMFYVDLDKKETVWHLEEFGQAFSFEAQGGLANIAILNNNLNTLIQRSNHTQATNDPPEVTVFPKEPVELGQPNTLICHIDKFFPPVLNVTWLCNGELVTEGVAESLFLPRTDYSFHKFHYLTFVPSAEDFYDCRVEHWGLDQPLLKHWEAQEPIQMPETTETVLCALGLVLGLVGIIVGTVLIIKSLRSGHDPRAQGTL
Sequence (P04440 30-258 A65V/A84D/A85E): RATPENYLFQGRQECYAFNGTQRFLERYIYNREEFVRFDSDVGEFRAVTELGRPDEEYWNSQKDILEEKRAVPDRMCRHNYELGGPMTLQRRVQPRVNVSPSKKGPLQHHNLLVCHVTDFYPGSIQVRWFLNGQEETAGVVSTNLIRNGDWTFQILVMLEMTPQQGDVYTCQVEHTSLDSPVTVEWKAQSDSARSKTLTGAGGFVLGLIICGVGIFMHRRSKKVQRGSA
procedure summary: biochemical
Assay type: binding
details: DP*0402 IC50 (nM), Table XV; HLA-DP4-binding activity
recorded metric: IC50

Guide cases for IC50, answers given:
CSCC[C@H](NC(=O)[C@@H](N)CC(C)C)C(=O)N[C@@H](CC(=O)O)C(=O)N[C@@H](CCCCN)C(=O)N[C@@H](CO)C(=O)N[C@@H](CC(C)C)C(=O)N[C@@H](Cc1c[nH]cn1)C(=O)N[C@H](C(=O)NCC(=O)N[C@H](C(=O)N[C@@H](CCC(N)=O)C(=O)N[C@@H](CS)C(=O)N[C@@H](C)C(=O)N[C@@H](CC(C)C)C(=O)N[C@H](C(=O)N[C@@H](CCCNC(=N)N)C(=O)N[C@@H](CCCNC(=N)N)C(=O)N[C@@H](CS)C(=O)N1CCC[C@H]1C(=O)N[C@@H](CCC(N)=O)C(=O)O)[C@@H](C)O)[C@@H](C)O)C(C)C; > 10000 nM
CC(C)C[C@H](NC(=O)[C@H](CCCCN)NC(=O)[C@H](CCC(=O)O)NC(=O)[C@H](Cc1ccc(O)cc1)NC(=O)[C@H](C)N)C(=O)N[C@@H](CO)C(=O)N[C@@H](C)C(=O)N[C@@H](CCC(=O)O)C(=O)N[C@@H](CCC(N)=O)C(=O)N[C@@H](CO)C(=O)N1CCC[C@H]1C(=O)N1CCC[C@H]1C(=O)N1CCC[C@H]1C(=O)N[C@@H](Cc1ccc(O)cc1)C(=O)N[C@@H](CO)C(=O)N1CCC[C@H]1C(=O)O; > 10000 nM

Problem: I am curious: what IC50 value has been reported for CC(C)C[C@H](NC(=O)[C@H](Cc1ccc(O)cc1)NC(=O)[C@H](CC(N)=O)NC(=O)[C@H](CCC(=O)O)NC(=O)[C@H](CCC(N)=O)NC(=O)[C@@H](NC(=O)[C@H](Cc1ccccc1)NC(=O)[C@H](Cc1c[nH]cn1)NC(=O)[C@H](CCC(N)=O)NC(=O)[C@@H](NC(=O)[C@H](CC(C)C)NC(=O)[C@@H](N)CC(C)C)[C@@H](C)O)C(C)C)C(=O)N[C@@H](CCC(=O)O)C(=O)N[C@@H](Cc1ccc(O)cc1)C(=O)O ?
Result: 400 nM
